B1: ZNF263 (parent)
chain: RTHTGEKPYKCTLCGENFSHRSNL

Variants of: B1
Assay: protein stability index of a GFP-peptide fusion (GPS, HEK-293T) (PSI 1-6); higher = more stable;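 also: lentivirally expressed fusions sorted by FACS into six bins by GFP to DsRed ratio, PSI derived from sequencing read proportions per bin multiplied by bin number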
Details: c terminus: a fixed tail appended
protein stability index reference

Observe how each entry below is paired with its result.
Mutation Notation: E16R
Assay Metric: protein stability index
Test Result: 2.03

Mutation Notation: T12K
Assay Metric: protein stability index
Test Result: 1.98

Mutation Notation: H20E
Assay Metric: protein stability index
Test Result: 2.04

Mutation Notation: N17L
Assay Metric: protein stability index
Test Result: 1.98

Mutation Notation: K10V
Assay Metric: protein stability index
Test Result: 2.05

Mutation Notation: P8R
Assay Metric: protein stability index
Test Result: 1.99

Mutation Notation: R21Y
Assay Metric: protein stability index
Test Result: 1.96

Mutation Notation: H20M
Assay Metric: protein stability index
Test Result: 1.98

Ask: Given the entry `L24R` , report its measured protein stability index.
Result: 1.95

Ask: Given the entry `G15L` , report its measured protein stability index.
Result: 1.97

Ask: Given the entry `K10E` , report its measured protein stability index.
Result: 2.04

// data source = the supplement of paper PMC10567573
